# TARGET DESC: Opioid Kappa Receptor (recombinant human, HEK293 cells) (Homo sapiens (Human), UniProt P41145)
# ASSAY NOTES: cell-based
# PARTICULARS: read-out: EC50
Square brackets hold non-standard residues; d marks the D form. Peptide text beside a SMILES is read from it. * marks the point of attachment. Piperidin1yl(4-NH2,4-CO2Me) = COC(=O)C1(N)CCN(*)CC1; Pyrrolidino(3-NH2-3-COOH) = NC1(C(=O)O)CCN(*)C1; dAla(cPr) = N[C@H](CC1CC1)C(=O)O
RESULT TYPE: EC50

- CCOC(=O)C(N)C(=O)NC1CCN(C(=O)[C@@H](CCCCN)NC(=O)[C@@H](CC(C)C)NC(=O)[C@@H](Cc2ccccc2)NC(=O)[C@H](N)Cc2ccccc2)CC1 (some centres unmarked) [Compound 13-39]: 14.7 nM
- CC(C)C[C@@H](NC(=O)[C@@H](Cc1ccccc1)NC(=O)[C@H](N)Cc1ccccc1)C(=O)N[C@H](CCCCN)C(=O)NC1CCN(C(=O)C(N)=O)CC1 [Compound 13-34]: 20.2 nM
- CC(C)C[C@@H](NC(=O)[C@@H](Cc1ccccc1)NC(=O)[C@H](N)Cc1ccccc1)C(=O)N[C@H](CCCCN)C(=O)N(C)C[C@H](O)[C@@H](O)[C@H](O)[C@H](O)CO [Compound 13-50]: 12.2 nM
- NCCCC[C@@H](NC(=O)[C@@H](CC1CC1)NC(=O)[C@@H](Cc1ccccc1)NC(=O)[C@H](N)Cc1ccccc1)C(=O)N1CCC(N)(C(=O)O)C1 (some centres unmarked) [Compound 119] (H-[dF][dF][dAla(cPr)][dK]-{Pyrrolidino(3-NH2-3-COOH)}): 23.1 nM
- COC(=O)C1(N)CCN(C(=O)[C@@H](CCCNC(=N)N)NC(=O)[C@@H](CC2CC2)NC(=O)[C@@H](Cc2ccccc2)NC(=O)[C@H](N)Cc2ccccc2)CC1 [Compound 126] (H-[dF][dF][dAla(cPr)][dR]-{Piperidin1yl(4-NH2,4-CO2Me)}): 6.81 nM
